Sourced from PubChem BioAssay (NCI)

- Test description: NCI Yeast Anticancer Drug Screen. Data for the sgs1 mgt1 strain (AID 161);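 also: 0% = growth of cultures given vehicle only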
- Measurement setup: S. cerevisiae sgs1 mgt1 strain, at 50.0 µM, hits give high values
This is part of a sample that, as a whole, favours compounds with a hit. Of some 79,000 tested, about 15% had one in any assay.
In this section, each of the compounds is paired with its reported growth inhibition.
Express the result in % but write the number alone.

# count of solved cases: 6
CN1CCN(c2ccc3nc(-c4ccc5nc(-c6ccc(O)cc6)[nH]c5c4)[nH]c3c2)CC1    99.2
COc1ccc2nc3cccc([N+](=O)[O-])c3c(NCCCO)c2c1    82.9
Cc1ccnc(NS(=O)(=O)c2ccc(Nc3c4ccccc4nc4ccccc34)cc2)n1    77.6
CCOc1ccc2ccc3cccnc3c2n1    70.6
[Cl][Pt+2][Cl].[NH-]CC1(C[NH-])CCCCC1    92.7
CC1C=CN(N(C)C)C2=C1C(=O)c1cnccc1C2=O (configuration not stated)    89.7

Query compound follows.
Input "Nc1c([N+](=O)[O-])cc2c3c(cccc13)CC2" . Output growth inhibition: 52.5

----------
- Test description: NCI Yeast Anticancer Drug Screen. Data for the mec2-1 strain (AID 157)
- Measurement setup: S. cerevisiae mec2-1 strain, at 50.0 µM
About 79,000 compounds went through this panel and 15% of them were active in at least one assay; those are over-represented in the sample as a whole. Activity calls are given as the source filed them. Cut-off read from the data, not from the text of the source: active = growth inhibition above about 70%; inactive = the rest.
Reply using exactly one outcome from t = active, f = inactive

Q. Per the assay record, what outcome was assigned to "COc1ccc(CCN2C(=O)C=CC2=O)cc1OC" ?
A. t

Q. Which outcome did this test record for the molecule "CCCC#CCOC(=O)c1cc([N+](=O)[O-])cc([N+](=O)[O-])c1" ?
A. t

Q. Which outcome was entered for the molecule "Cc1cccc[c]1[Sn]([Cl])([S]/C(C#N)=N/N=C/c1ccc(N(C)C)cc1)[c]1ccccc1C" in this test?
A. t

Q. Can you look up the reported call for "Cc1cccc(N2CCN(C(=O)/C(=C/c3ccccc3)NC(=O)c3ccccc3)CC2)c1" for me?
A. f

Q. What outcome does the record of this test show for c1ccc(N/N=C2\CC(c3ccccc3)Oc3ccccc32)cc1 (stereo not given) ?
A. f

Q. So what was the verdict on "O=c1[nH]c(=O)n(CCCO)cc1F" in this test?
A. f

Q. What call does the record list for "CCN(CC)CCSc1c2ccccc2nc2cc(NCC(=O)Nc3ccccc3-c3ccccc3NC(=O)CNc3ccc4c(SCCN(CC)CC)c5ccccc5nc4c3)ccc12" ?
A. t

Q. Record lookup: outcome of this test for "O=[N+]([O-])c1cccc2nc3ccccc3c(NCCC[N+]3([O-])CCOCC3)c12" ?
A. t

Q. In this assay, the call recorded for "CCCCCC(=O)C(C)(c1nc2n(c1O)/C(=N/C(=O)Nc1ccc(Cl)cc1)N=N2)c1nc2n(c1O)/C(=N/C(=O)Nc1ccc(Cl)cc1)N=N2" was what?
A. f

Q. Recorded test call requested for "CN(C)CCNC(=O)c1cccc2nc3c4ccccc4c4ccccc4c3nc12"
A. t

----------
- Test description: NCI Yeast Anticancer Drug Screen. Data for the rad50 strain (AID 155);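 also: 0% = growth of vehicle-only cultures of the same strain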
- Measurement setup: S. cerevisiae rad50 strain growth inhibition; at 100.0 µM; hits give high values
About 79,000 compounds went through this panel and 15% of them were active in at least one assay; those are over-represented in the sample as a whole.
# growth inhibition annotations
# output: bare number, implied unit %

Examples from the recorded data:
O=Cc1ccccc1B(O)O    99
CNc1ccc2[nH]c3ccccc3c2c1    58
CCCCCCCCCCCCCCCCOCC(Cl)COP(=O)(O)OP(=O)(O)OCC1OC(n2cnc3c(N)ncnc32)C(O)C1O (centres undefined)    86
CCN(CC)c1cccc(Nc2nc3ccccc3s2)c1    7
Cc1cc(NC(=S)SCc2ccc(Cl)cc2)ccc1Cl    95

Per the records, this compound ( "CCN(CC)c1ccc(N=Nc2cc(S(=O)(=O)O)ccc2O)c(O)c1" ) has growth inhibition equal to -13

// sample "O=S(=O)(O)CC[S][Sn]([S]CCS(=O)(=O)O)([c]1ccccc1)[c]1ccccc1" , its growth inhibition was 97

GET /value?item= CCC(C)C(=O)OCC(=O)c1ccc(-c2ccccc2)cc1 (centres undefined) &field=growth inhibition returns -2

# compound "O=C1C=CC(=Nc2ccc3c(c2)Cc2cc(Cl)ccc2-3)O1" ; its growth inhibition = 96

Looking up "O=C(CCC(=O)c1ccc(O)cc1)Oc1ccc(O)cc1" , I see its growth inhibition listed as 11

----------
- Test description: NCI Yeast Anticancer Drug Screen. Data for the wt1 strain (AID 149);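 also: 0% = growth of vehicle-treated wt1 cultures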
- Measurement setup: S. cerevisiae wt1 strain (SPY 50644) growth inhibition; at 33.0 µM
This is part of a sample that, as a whole, favours compounds with a hit. Of some 79,000 tested, about 15% had one in any assay. The source made the active and inactive calls. Rule as the data show it: active = growth inhibition above about 70%; inactive = the rest.
Thanks in advance; please answer with one of these: active, inactive

C[n+]1c(-c2ccc(NC(=O)c3ccc(C(=O)Nc4ccc(-c5cn6ccccc6[n+]5C)cc4)cc3)cc2)cn2ccccc21    active

Q. Hi, sorry to bother you, what did the test record for "S=c1[nH]nc(Cc2ccccc2)c(=S)[nH]1" ?
A. active

Q. Just curious, what result did "CNc1ccc2[nH]c3ccccc3c2c1" get here?
A. inactive

Q. # lookup: test call for "Nc1c([N+](=O)[O-])cc2c3c(cccc13)CC2"
A. inactive

Q. What outcome does the record of this test show for "Cc1ccnc(NS(=O)(=O)c2ccc(Nc3c4ccccc4nc4ccccc34)cc2)n1" ?
A. inactive

----------
- Test description: NCI Yeast Anticancer Drug Screen. Data for the wt1 strain (AID 149);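 also: 0% = growth of vehicle-treated wt1 cultures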
- Measurement setup: S. cerevisiae wt1 strain (SPY 50644) growth inhibition; at 1.2 µM; hits give high values
This is part of a sample that, as a whole, favours compounds with a hit. Of some 79,000 tested, about 15% had one in any assay.
Measured metric: growth inhibition (%)
Express it in %; write the number only.

Cc1[nH]nc(C(F)(F)F)c1N=NN(C)C    -4
c1ccc(N/N=C2\CC(c3ccccc3)Oc3ccccc32)cc1 (stereo not drawn)    -1
CN(NC(=O)/C(=C/C=C/c1ccccc1)NC(=O)c1ccccc1)C1=C(Cl)C(=O)[N+](c2ccccc2)=CC1    0
CCCCCCCCCCCCOC1C(COCCN2CCCC2)OC2OC(C)(C)OC21 (stereo not drawn)    23
CN(C)N=Nc1ccc(NC=O)cc1    -2

Entry under test: "COc1ccc(/C=C2\S/C(=N/Nc3nc(-c4ccccc4)cs3)NC2=O)cc1OC" . Its growth inhibition was 50

Measured growth inhibition, "CCOC(=O)C1=C(C)NC(C)=C(C(=O)OCC)C1c1ccc(Cl)cc1" : -23

"COc1ccc2nc3cccc([N+](=O)[O-])c3c(NCCCO)c2c1" yielded growth inhibition of 15

Input "CC(=O)c1ccc(NCN2C(=O)c3ccccc3C2=O)cc1" . Output growth inhibition: -51

Just so you know, measured growth inhibition for "c1cc2ccc3cc4ncccc4c4ccc(c1)c2c34" came out at -2

The recorded growth inhibition for entry "COc1ccc2cc(CN3CCC(C4CCN(Cc5ccc6cc(OC)ccc6c5)CC4)CC3)ccc2c1" equals -1

According to the records, this compound COc1ccc(/C(=N/O)c2ccccc2C2=Nc3ccccc3C(NCc3ccccc3)O2)cc1C (stereo not drawn) displays growth inhibition of -1

----------
- Test description: NCI Yeast Anticancer Drug Screen. Data for the rad14 strain (AID 159);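 also: 0% = growth of vehicle-treated control cultures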
- Measurement setup: S. cerevisiae rad14 strain growth inhibition; at 100.0 µM; hits give high values
About 79,000 compounds went through this panel and 15% of them were active in at least one assay; those are over-represented in the sample as a whole.
Let's look at some compounds and their measured growth inhibition.
A number alone suffices; assume %.

Below, each entry is followed by its recorded growth inhibition result.
O=C(O)[C@H]1[C@@H](C2CCCCC2)O[C@@H](C2CCCCC2)O[C@H]1C(F)(F)F    -1
COc1ccc2c(Cc3c4ccccc4cc4ccccc34)cncc2c1O    93

Sure, the documented growth inhibition for "CCCC#CCOC(=O)c1cc([N+](=O)[O-])cc([N+](=O)[O-])c1" is 99

The compound "O=[N+]([O-])c1ccc2nnnn2c1" showed growth inhibition equal to 30

# compound "NNc1nnc(-c2ccccc2)nc1Cc1ccccc1" ; its growth inhibition = 91

growth inhibition reading for "COc1ccc(C(=O)OCCc2ccccc2)cc1" : 4

Form field growth inhibition, entry "COc1ccc(C(=O)NCCN(C)C)c2nc3ccccc3cc12" : 57

For record "Cc1cc(NCCCN(C)C)c2ccc3c(ccc4c(NCCCN(C)C)cc(C)nc43)c2n1" the listed growth inhibition is 58

Lab note: measured growth inhibition of "CNc1ccc2[nH]c3ccccc3c2c1" was 80

Value of growth inhibition reported for the compound "O=C1C=CC(=Nc2ccc3c(c2)Cc2cc(Cl)ccc2-3)O1" is 97

The measured growth inhibition associated with "Cc1cnccc1N=Nc1ccc(N(C)C)cc1" reads 51

Entry "CN(C)/N=N/c1nc[nH]c1C(N)=O" — recorded growth inhibition = 98

So, "Nc1ccc2cc(Br)c3ccccc3c2c1" ? Its growth inhibition was 21

Record summary for "Nc1nc(Nc2ccccc2)nc(Nc2ccccc2)n1" : reported growth inhibition = 95
